# protocol: Cytotoxicity against human HEK293 cells at 2 uM measured after 48 hrs by sulforhodamine B assay relative to control
# Format: cell-based
# experimental context: read-out: INH
quantity name: cytotoxicity at 48 h, 2 µM (%)

compound="COc1cccc2c1C(=O)c1c(O)c3c(c(O)c1C2=O)C[C@@](O)(C(=O)CO)C[C@@H]3O[C@H]1C[C@H](N)[C@H](O)[C@H](C)O1 [DOXORUBICIN]" quantity_name="cytotoxicity at 48 h, 2 µM" reading=75.6

----------
# protocol: Cytotoxicity against human PC3 cells at 2 uM measured after 48 hrs by sulforhodamine B assay relative to control
# Type: cell-based, PC-3
# experimental context: read-out: INH
quantity name: cytotoxicity at 48 h, 2 µM (%)

compound="COc1cccc2c1C(=O)c1c(O)c3c(c(O)c1C2=O)C[C@@](O)(C(=O)CO)C[C@@H]3O[C@H]1C[C@H](N)[C@H](O)[C@H](C)O1 [DOXORUBICIN]" quantity_name="cytotoxicity at 48 h, 2 µM" reading=86.7
